Consider the following molecules; for each one, report its LC50.
- protocol.text: Toxicity in brine shrimp
- Format: organism-based
- condition.info: artemia salina, in vivo; read-out: LD50 (the source's name)
Give bare numbers, in µM.

Solved entries (count: 2):
mol.smiles	LC50 (µM)
CO[C@@H]1C(=O)Nc2ccc(/C=C/[C@]3(C)CCC(=O)[C@@H](C)C3)c(O)c2[C@@]1(O)c1ccccc1	5.5
CO[C@@H]1C(=O)Nc2ccc(CC=C(C)C)c(O)c2[C@@]1(O)c1ccccc1	4.5

Request: Form field: reported LC50 of CO[C@@H]1C(=O)Nc2ccc(/C=C/[C@@]3(C)CC[C@H](C(C)(C)O)O3)c(O)c2[C@@]1(O)c1ccccc1
Response: 7.1
